Recorded MIC by entry
# Tested on: Salmonella enterica subsp. enterica serovar Typhimurium ATCC 14028
# TEST_METHOD_NOTES: ≥ marks a high value that may be exact or a test limit, other limits are often not marked, values filed in µg/mL are converted to µM
Write down the numeric answer in µM and omit the unit.

MOLECULE_SMILES	MEASUREMENT_KIND	RECORDED_MEASUREMENT
CC(C)C[C@H](NC(=O)[C@H](CC(C)C)NC(=O)[C@H](CCCN=C(N)N)NC(=O)[C@H](CCCN=C(N)N)NC(=O)[C@H](CC(C)C)NC(=O)[C@H](CCCN=C(N)N)NC(=O)[C@H](CCCN=C(N)N)NC(=O)[C@H](CC(C)C)NC(=O)[C@H](CC(C)C)NC(=O)[C@@H](N)CCCN=C(N)N)C(=O)N[C@@H](CCCN=C(N)N)C(N)=O	MIC	8

Attention now turns to another entry.
May I ask what MIC has been recorded for CC(C)C[C@H](NC(=O)[C@H](Cc1ccccc1)NC(=O)[C@H](CCCCN)NC(=O)[C@H](C)NC(=O)[C@H](C)NC(=O)[C@H](CC(C)C)NC(=O)[C@H](CCCCN)NC(=O)[C@H](CCCCN)NC(=O)[C@H](CC(C)C)NC(=O)[C@H](CC(C)C)NC(=O)[C@H](CCCCN)NC(=O)[C@H](CC(C)C)NC(=O)[C@@H](N)Cc1ccccc1)C(=O)O ?
16.3
